Tested on: Staphylococcus aureus
Experiment: Antibacterial activity against Staphylococcus aureus RN4220 assessed as growth inhibition at 30 ug/ml after 16 hrs by spectrophotometric analysis
Type: functional
Conditions: RN4220, 16 h, read-out: GI
Where inhibition of growth at 30 µg/mL equals or exceeds 80%, the correct label is Condition met; where it does not, the label is Condition not met.

Past entries and their recorded results:
Smiles Entry	Assigned Class
CCn1cc(C(=O)O)c(=O)c2cc(F)c(N3CCN(C(=O)[C@H](Cc4ccccc4)NC(=O)OCc4ccccc4)CC3)cc21	Condition met
CCn1cc(C(=O)O)c(=O)c2cc(F)c(N3CCNCC3)cc21	Condition not met

input: # bool: inhibition of growth at 30 µg/mL of CCn1cc(C(=O)O)c(=O)c2cc(F)c(N3CCN(C(=O)CNC(=O)OCc4ccccc4)CC3)cc21 >= 80%
output: Condition met

====

Test system: Bacillus subtilis
Assay: Antibacterial activity against Bacillus subtilis 168 assessed as growth inhibition at 20 ug/ml after 16 hrs by spectrophotometric analysis
Type: functional
Details: subsp. subtilis str. 168, 16 h, read-out: GI
Measured Quantity: inhibition of growth at 20 µg/mL (%)
Please respond with the number in % and leave the unit unwritten.

input: Data request, read-out inhibition of growth at 20 µg/mL, for CCn1cc(C(=O)O)c(=O)c2cc(F)c(N3CCN(C(=O)[C@H](C)NC(=O)OCc4ccccc4)CC3)cc21
output: 90.5

input: Param item = CCn1cc(C(=O)O)c(=O)c2cnc(N3CCNCC3)nc21 ; retrieve measured inhibition of growth at 20 µg/mL.
output: 26

input: Suppose we examine the molecule CCn1cc(C(=O)O)c(=O)c2cc(F)c(N3CCNCC3)cc21 ; what inhibition of growth at 20 µg/mL value has been reported?
output: 92.2

input: Give its inhibition of growth at 20 µg/mL value. Item: CCn1cc(C(=O)O)c(=O)c2cnc(N3CCN(C(=O)[C@@H](NC(=O)OCc4ccccc4)C(C)C)CC3)nc21
output: 17

input: Which measured inhibition of growth at 20 µg/mL value corresponds to CCn1cc(C(=O)O)c(=O)c2cnc(N3CCN(C(=O)[C@H](C)NC(=O)OCc4ccccc4)CC3)nc21 ?
output: 5.34

input: For CCn1cc(C(=O)O)c(=O)c2cnc(N3CCN(C(=O)[C@H](CCCCNC(=O)OCc4ccccc4)NC(=O)OCc4ccccc4)CC3)nc21 , what is its reported inhibition of growth at 20 µg/mL?
output: -4.87

input: What does the data say about its inhibition of growth at 20 µg/mL? Entry: CCn1cc(C(=O)O)c(=O)c2cc(F)c(N3CCN(C(=O)C(C)NC(=O)OCc4ccccc4)CC3)cc21 (stereo unspecified)
output: 90.3

input: // lookup inhibition of growth at 20 µg/mL for CCn1cc(C(=O)O)c(=O)c2cnc(N3CCN(C(=O)CNC(=O)OCc4ccccc4)CC3)nc21
output: -7.68

input: So what's the measured inhibition of growth at 20 µg/mL for this one? CCn1cc(C(=O)O)c(=O)c2cc(F)c(N3CCN(C(=O)[C@H](Cc4ccccc4)NC(=O)OCc4ccccc4)CC3)cc21
output: 90.1

input: Quick one: inhibition of growth at 20 µg/mL of CCn1cc(C(=O)O)c(=O)c2cc(F)c(N3CCN(C(=O)CNC(=O)OCc4ccccc4)CC3)cc21 ?
output: 89.5

input: Requested read-out: inhibition of growth at 20 µg/mL. Entry: CCn1cc(C(=O)O)c(=O)c2cnc(N3CCN(C(=O)[C@H](Cc4ccccc4)NC(=O)OCc4ccccc4)CC3)nc21
output: 13.8

====

# key: entry, value: inhibition of growth at 10 µg/mL
System: Bacillus subtilis
Test: Antibacterial activity against Bacillus subtilis 168 assessed as growth inhibition at 10 ug/ml after 16 hrs by spectrophotometric analysis
Format: functional
Settings: subsp. subtilis str. 168, 16 h, read-out: GI
Give the number; % is assumed, so skip it.

Smiles Entry	inhibition of growth at 10 µg/mL, %
CCn1cc(C(=O)O)c(=O)c2cnc(N3CCN(C(=O)[C@H](Cc4ccccc4)NC(=O)OCc4ccccc4)CC3)nc21	6.09
CCn1cc(C(=O)O)c(=O)c2cc(F)c(N3CCNCC3)cc21	91.9

Let us examine a further case.
input: // returns reported inhibition of growth at 10 µg/mL for input CCn1cc(C(=O)O)c(=O)c2cnc(N3CCN(C(=O)[C@H](C)NC(=O)OCc4ccccc4)CC3)nc21
output: 90.3

====

Test system: Escherichia coli
Experiment: Antibacterial activity against Escherichia coli DH5alpha assessed as growth inhibition at 75 ug/ml after 16 hrs by spectrophotometric method
Format: functional
Conditions: DH5[alpha], read-out: GI
Measured Quantity: inhibition of growth at 75 µg/mL (%)
Dear colleague, please return just the value in %, with no unit written.

See these solved cases before continuing.
Smiles Entry	System	Measure Unit	inhibition of growth at 75 µg/mL
C[C@H](NC(=O)OCc1ccccc1)C(=O)Nc1ccc(S(=O)(=O)Nc2ncccn2)cc1	Escherichia coli	%	-0.65
Cc1ncc([N+](=O)[O-])n1CCOC(=O)[C@@H](NC(=O)OCc1ccccc1)C(C)C	Escherichia coli	%	3.26
Cc1ncc([N+](=O)[O-])n1CCO	Escherichia coli	%	8.2

input: Any idea what inhibition of growth at 75 µg/mL was measured for Cc1ncc([N+](=O)[O-])n1CCOC(=O)[C@H](Cc1ccccc1)NC(=O)OCc1ccccc1 ?
output: 5.73

input: Consider the compound Cc1ncc([N+](=O)[O-])n1CCOC(=O)[C@H](C)NC(=O)OCc1ccccc1 and give its measured inhibition of growth at 75 µg/mL.
output: 3.79

input: Which inhibition of growth at 75 µg/mL reading was recorded for the compound Nc1ccc(S(=O)(=O)Nc2ncccn2)cc1 ?
output: 6.44

input: Query: inhibition of growth at 75 µg/mL; subject: O=C(N[C@@H](Cc1ccccc1)C(=O)Nc1ccc(S(=O)(=O)Nc2ncccn2)cc1)OCc1ccccc1
output: 3.46

input: Request the reported inhibition of growth at 75 µg/mL associated with Cc1ncc([N+](=O)[O-])n1CCOC(=O)CNC(=O)OCc1ccccc1
output: 1.61

input: Looking for the measured inhibition of growth at 75 µg/mL of O=C(C[C@H](NC(=O)OCc1ccccc1)C(=O)Nc1ccc(S(=O)(=O)Nc2ncccn2)cc1)OCc1ccccc1 , can you help?
output: 4.72

input: Can you look up the measured inhibition of growth at 75 µg/mL of Cc1ncc([N+](=O)[O-])n1CCOC(=O)[C@H](CCCCNC(=O)OCc1ccccc1)NC(=O)OCc1ccccc1 for me?
output: 62.5

====

// values below are reported inhibition of growth at 75 µg/mL
Tested on: Staphylococcus aureus
Test: Antibacterial activity against Staphylococcus aureus RN4220 assessed as growth inhibition at 75 ug/ml after 16 hrs by spectrophotometric analysis
Type: functional
Details: RN4220, 16 h, read-out: GI
Value expressed in %; do not type the unit.

Smiles Entry	inhibition of growth at 75 µg/mL, %
Cc1ncc([N+](=O)[O-])n1CCOC(=O)[C@H](Cc1ccccc1)NC(=O)OCc1ccccc1	-0.03
Cc1ncc([N+](=O)[O-])n1CCO	-14.3

input: I'd like to know its inhibition of growth at 75 µg/mL. The compound in question is Cc1ncc([N+](=O)[O-])n1CCOC(=O)[C@H](CCCCNC(=O)OCc1ccccc1)NC(=O)OCc1ccccc1
output: -2.96

input: Recorded inhibition of growth at 75 µg/mL of Cc1ncc([N+](=O)[O-])n1CCOC(=O)[C@H](C)NC(=O)OCc1ccccc1 , please.
output: 8.86

input: Consider the compound shown here: Cc1ncc([N+](=O)[O-])n1CCOC(=O)[C@@H](NC(=O)OCc1ccccc1)C(C)C What is its recorded inhibition of growth at 75 µg/mL?
output: -7.76

input: // returns reported inhibition of growth at 75 µg/mL for input Cc1ncc([N+](=O)[O-])n1CCOC(=O)CNC(=O)OCc1ccccc1
output: 0.33

====

Tested on: Pseudomonas aeruginosa
Experiment: Antibacterial activity against Pseudomonas aeruginosa PAO1 assessed as growth inhibition at 40 ug/ml after 16 hrs by spectrophotometric analysis
Assay type: functional
Settings: PAO1, 16 h, read-out: GI
Measured Quantity: inhibition of growth at 40 µg/mL (%)
Numeric only. Scale: %

Molecule	System	Measure Unit	inhibition of growth at 40 µg/mL
O=C(NCC(=O)N1CCN(c2cc3c(cc2F)c(=O)c(C(=O)O)cn3C2CC2)CC1)OCc1ccccc1	Pseudomonas aeruginosa	%	45
O=C(O)c1cn(C2CC2)c2cc(N3CCNCC3)c(F)cc2c1=O	Pseudomonas aeruginosa	%	89.8
CCn1cc(C(=O)O)c(=O)c2cc(F)c(N3CCN(C(=O)[C@H](C)NC(=O)OCc4ccccc4)CC3)cc21	Pseudomonas aeruginosa	%	20.5
C[C@H](NC(=O)OCc1ccccc1)C(=O)N1CCN(c2cc3c(cc2F)c(=O)c(C(=O)O)cn3C2CC2)CC1	Pseudomonas aeruginosa	%	58.2
CCn1cc(C(=O)O)c(=O)c2cc(F)c(N3CCN(C(=O)[C@H](Cc4ccccc4)NC(=O)OCc4ccccc4)CC3)cc21	Pseudomonas aeruginosa	%	5.69

input: Tell me the measured inhibition of growth at 40 µg/mL of O=C(NCCCC[C@H](NC(=O)OCc1ccccc1)C(=O)N1CCN(c2cc3c(cc2F)c(=O)c(C(=O)O)cn3C2CC2)CC1)OCc1ccccc1 , please.
output: 84.2

input: Dear colleague, I am looking for the recorded inhibition of growth at 40 µg/mL of the following molecule: CCn1cc(C(=O)O)c(=O)c2cc(F)c(N3CCNCC3)cc21
output: 89.1

input: GET /values?readout=inhibition of growth at 40 µg/mL&item= CCn1cc(C(=O)O)c(=O)c2cc(F)c(N3CCN(C(=O)C(C)NC(=O)OCc4ccccc4)CC3)cc21 (centres undefined)
output: 25.8

input: Fill in: inhibition of growth at 40 µg/mL of CCn1cc(C(=O)O)c(=O)c2cc(F)c(N3CCN(C(=O)CNC(=O)OCc4ccccc4)CC3)cc21 is ___
output: 81.5
